Tested on: Enterococcus faecium
Protocol Summary: Inhibition of penicillin-resistant Enterococcus faecium PBP5fm assessed as residual activity at 1 mM incubated for 4 hrs prior to prior to fluoresceyl-ampicillin labelling measured after 20 mins by SDS-PAGE analysis
Measured Activity, listed per entry.
Give a bare numeral; the unit % is implied.

Worked cases, Activity given:
COc1cccc(C(=O)NCB(O)O)c1 : 89
O=C(Cc1ccc(Cl)cc1)NCB(O)O : 88
O=C(CCc1ccccc1)NCB(O)O : 79
O=C(NCB(O)O)c1ccccc1Cl : 97
O=C(NCB(O)O)c1ccccc1[N+](=O)[O-] : 88
O=C(Cc1ccccc1Cl)NCB(O)O : 88

Record "COc1ccc(C(=O)NCB(O)O)cc1" . Reported Activity: 81

Record "O=C(Cc1ccccc1[N+](=O)[O-])NCB(O)O" . Reported Activity: 84

Record "O=C(Cc1ccccc1)NCB(O)O" . Reported Activity: 83

----------
Test System: Penicillin-binding protein 2x (Streptococcus pneumoniae serotype 4 (strain ATCC BAA-334 / TIGR4))
Protocol Summary: Inhibition of penicillin-resistant Streptococcus pneumoniae 5204 PBP2x using S2d as substrate assessed as residual activity at 1 mM incubated for 4 hrs prior to substrate addition by DNTB-based spectrophotometry
Experimental Readout: Activity (%)
Give a bare numeral; the unit % is implied.

Worked cases, Activity given:
O=C(Cc1ccccc1[N+](=O)[O-])NCB(O)O : 86
CC(=O)NCB(O)O : 97
COc1ccccc1C(=O)NCB(O)O : 99
O=C(NCB(O)O)c1ccccc1 : 81
COc1cccc(OC)c1C(=O)NCB(O)O : 100
Cc1ccccc1C(=O)NCB(O)O : 105

Record "O=C(NCB(O)O)c1ccccc1C(F)(F)F" . Reported Activity: 109

----------
Measured pIC50, listed per entry.
Test System: UniProt P59676
Sequence (P59676 whole entry): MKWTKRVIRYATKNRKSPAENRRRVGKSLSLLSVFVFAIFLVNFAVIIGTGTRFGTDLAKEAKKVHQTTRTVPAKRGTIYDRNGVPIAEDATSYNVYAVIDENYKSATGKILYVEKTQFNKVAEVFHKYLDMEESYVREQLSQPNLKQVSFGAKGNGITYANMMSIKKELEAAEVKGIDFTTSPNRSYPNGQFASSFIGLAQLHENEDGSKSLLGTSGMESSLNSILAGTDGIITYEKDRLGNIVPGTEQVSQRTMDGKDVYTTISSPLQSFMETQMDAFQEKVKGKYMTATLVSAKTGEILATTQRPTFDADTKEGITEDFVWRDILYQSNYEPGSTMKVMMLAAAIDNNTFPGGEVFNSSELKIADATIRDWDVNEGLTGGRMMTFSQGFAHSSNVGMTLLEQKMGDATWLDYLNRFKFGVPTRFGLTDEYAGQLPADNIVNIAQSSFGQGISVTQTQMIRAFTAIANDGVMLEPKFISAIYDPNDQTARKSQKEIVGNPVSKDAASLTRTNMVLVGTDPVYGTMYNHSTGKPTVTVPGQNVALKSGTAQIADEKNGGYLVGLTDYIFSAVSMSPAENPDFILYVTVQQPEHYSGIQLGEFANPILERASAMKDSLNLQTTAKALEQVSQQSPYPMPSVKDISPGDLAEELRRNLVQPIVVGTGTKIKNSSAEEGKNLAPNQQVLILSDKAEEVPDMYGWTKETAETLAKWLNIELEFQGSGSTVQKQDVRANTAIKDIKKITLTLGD
pIC50 here is simply -log10 of the concentration when that concentration is written in mol/L.

Worked cases, pIC50 given:
COc1cccc(OC)c1C(=O)NCB(O)O : 3.56
O=C(Cc1ccccc1[N+](=O)[O-])NCB(O)O : 3.47
O=C(NCB(O)O)c1ccccc1Cl : 3.58

Record "O=C(NCB(O)O)c1ccccc1[N+](=O)[O-]" . Reported pIC50: 3.86

Record "O=C(NCB(O)O)c1ccccc1C(F)(F)F" . Reported pIC50: 3.32

The reported numbers originate from ChEMBL document CHEMBL2034818.
